Attribution: paper PMC2756588

Molecular target: T1, Pin3, Q06449
T1 sequence (Q06449 53-122, looked up): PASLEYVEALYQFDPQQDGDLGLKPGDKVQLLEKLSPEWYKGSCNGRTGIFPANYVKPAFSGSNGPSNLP
Assay: SPOT array
Settings: median of control spots 2171
Assay endpoint: SPOT intensity
Give the value as a plain number.

Example entries and their recorded answers appear below.
Binder | SPOT intensity
SSSSSPPPLPTRRDH | 0
TKFRISLGLPVGAIM | 65
GDHPKGPPPPPPPDE | 2

Note: attention shifts to another entry.
Incoming: Request the reported SPOT intensity associated with QHQQRQPKRPKRYSL
Outgoing: 2
